- assay.overview: Inhibition of MDR1 in human KB/VCR cells assessed as potentiation of vincristine-induced cytotoxicity by measuring vincristine IC50 at 25 uM after 72 hrs by Western blot analysis (Rvb = 4.21 +/- 0.33 uM)
measurement.label: IC50 (nM)
Give bare numbers, in nM.

Input line: # IC50 lookup, item CC(C)C(=O)OC(C)(C)[C@@H]1Cc2c(ccc3ccc(=O)oc23)O1
Output line: 560
